# assayDetails: In-vivo pharmacokinetic evaluation, single dose
# Parameters: species or system New Zealand White rabbits
# reportedConditions: New Zealand White, whole blood; rabbit, single 1 mg dose (oral or buccal patch); read-out: Mean AUC0-24

molecule: C=CC[C@@H]1/C=C(\C)C[C@H](C)C[C@H](OC)[C@H]2O[C@@](O)(C(=O)C(=O)N3CCCC[C@H]3C(=O)O[C@H](/C(C)=C/[C@@H]3CC[C@@H](O)[C@H](OC)C3)[C@H](C)[C@@H](O)CC1=O)[C@H](C)C[C@@H]2OC (relative stereo) [Tacrolimus, monohydrate]
AUC(0-t), ng·h/mL: 250

----------
# assayDetails: In-vivo pharmacokinetic evaluation, single dose
# Parameters: species or system New Zealand White rabbits
# reportedConditions: New Zealand White, whole blood, 1 mg; heading: Average Tac conc.; rabbit blood, 12.0 (720 mins) after single 1 mg dose (oral or buccal patch)

molecule: C=CC[C@@H]1/C=C(\C)C[C@H](C)C[C@H](OC)[C@H]2O[C@@](O)(C(=O)C(=O)N3CCCC[C@H]3C(=O)O[C@H](/C(C)=C/[C@@H]3CC[C@@H](O)[C@H](OC)C3)[C@H](C)[C@@H](O)CC1=O)[C@H](C)C[C@@H]2OC (relative stereo) [Tacrolimus, monohydrate]
unitTag: ng/mL
concentration at 12 h: 7.9
